Provenance of the data: PubChem BioAssay (NCI)

- Tested on: OVCAR-4 ovarian
- TEST METHOD NOTES: NCI-60 one-dose screen, 48 h (100 = growth as untreated, 0 = no growth, -100 = all killed)
- CONDITION DESCRIPTION: 10 µM unless noted
About 83,000 compounds went through this panel and 20% of them were active in at least one assay; those are over-represented in the sample as a whole.
MEASURED METRIC: growth (%)
Just the number please, in %, no unit attached.

Solved entries (count: 5):
>  <COMPOUND>
CNC(=O)c1cc(Oc2ccc3nc(Nc4ccc(Cl)c(C(F)(F)F)c4)ccc3c2)ccn1

>  <growth [%]>
56.3

$$$$
>  <COMPOUND>
COc1cc(-c2nc(N3CCN(C)CC3)c3ccccc3n2)cc(OC)c1OC

>  <growth [%]>
55.9

$$$$
>  <COMPOUND>
CCOC(=O)c1c(/C=C/C(=O)O)nc2ccccc2c1/C=C/c1ccccc1

>  <growth [%]>
60.5

$$$$
>  <COMPOUND>
CC1SC(c2ccc(OCc3ccccc3)cc2)N(NC(=O)C(O)(c2ccccc2)c2ccccc2)C1=O (centres undefined)

>  <growth [%]>
54.7

$$$$
>  <COMPOUND>
CSc1n(Cc2ccc3ccccc3c2)c(C)c[n+]1Cc1ccc2ccccc2c1

>  <growth [%]>
-7.94

$$$$

Sample `CN(C)CCNc1nc2ccccc2c2c1c1c(n2Cc2ccccc2)-c2ccccc2C1=O` — what was its growth?
-93.6

Thanks! And `c1ccc(-c2nc([P+](c3ccccc3)(c3ccccc3)c3ccccc3)c(N3CCOCC3)o2)cc1` ?
11.4

Thanks! And `C[C@H]1[C@H]2[C@H]3CC[C@@H]4[C@@]5(C)C/C(=C/c6cccnc6)C(=O)C(C)(C)[C@@H]5CC[C@@]4(C)[C@]3(C)CC[C@]23CO[C@]1(C)[C@@H](C(=O)/C=C\c1cccnc1)C3` ?
18.6

Thanks! And CCC(CO)Nc1nc2ccc(Cl)cc2c2ccccc12 (centres undefined) ?
71.3

Thanks! And `O=C(Nc1ccc(-n2cc(-c3ccncc3)c(-c3ccc(Cl)c(O)c3)n2)cc1)N1CCOCC1` ?
104

Thanks! And `CN(C)c1ccc(/C=C/C(=O)c2cccc(Nc3nc(Nc4ccccc4)nc(Nc4ccccc4)n3)c2)cc1` ?
30.7

Thanks! And `CC(C)C(=O)Nc1n[nH]c2cc(-c3cccc(NS(=O)(=O)C4CC4)c3)ccc12` ?
52.8

Thanks! And `Nc1ccc2c(c1)c(N)nn2C(=O)Nc1ccc(Cc2ccccc2)cc1` ?
56.2

Thanks! And `COC(=O)CCC1=C(C)C2=NC1=CC1=NC(=CC3=NC(=Cc4[nH]c(/c(=C(/C)O)c4C)=C2)C(C(C)=O)=C3C)C(C)=C1CCC(=O)OC` ?
107

* * *

- Tested on: OVCAR-3 ovarian
- TEST METHOD NOTES: NCI-60 one-dose screen, 48 h (100 = growth as untreated, 0 = no growth, -100 = all killed)
- CONDITION DESCRIPTION: 10 µM unless noted
This is part of a sample that, as a whole, favours compounds with a hit. Of some 83,000 tested, about 20% had one in any assay.
MEASURED METRIC: growth (%)
Just the number please, in %, no unit attached.

Solved entries (count: 3):
>  <MOLECULE>
COC(=O)c1c2c(c(C)[n+]([O-])c1C)C(=O)C(NCc1ccc(F)cc1)=CC2=O

>  <growth (%)>
-21

$$$$
>  <MOLECULE>
CC(=O)OC1CCC2(C)C(=CC3C4CCC(=O)C4(C)CCC32)C1 (stereo not drawn)

>  <growth (%)>
109

$$$$
>  <MOLECULE>
CS(=O)(=O)c1ccc(Nc2nc(N[C@H]3CCCC[C@H]3N)nc3cc[nH]c(=O)c23)cc1

>  <growth (%)>
-45.2

$$$$

Sample `O=c1[nH]c2ccccc2n1C1CCN(CCOc2ccccc2)CC1` — what was its growth?
65.4

Thanks! And `NC(=O)c1ccc[n+]([C@@H]2O[C@H](COP(=O)([O-])OP(=O)(O)OC[C@H]3O[C@@H](n4cnc5c(N)ncnc54)[C@H](O)[C@@H]3O)[C@@H](O)[C@H]2O)c1` ?
107

Thanks! And `COc1ccc(Nc2nnc(SCc3ccccc3F)s2)cc1` ?
111

Thanks! And CC1=C([Se]CC(OC(=O)CC[Se]c2ccccc2)C(=O)NCCCCCC(=O)OCc2ccccc2)C(=O)c2ccccc2C1=O (stereo not drawn) ?
-3.7

Thanks! And `CCc1c2c(nc3ccc(OC(=O)NCc4ccc(B5OC(C)(C)C(C)(C)O5)cc4)cc13)-c1cc3c(c(=O)n1C2)COC(=O)[C@]3(O)CC` ?
-24.7
